target: T1, recombinant human PSMA (R&D, cat. no. 4234-ZN) (human, UniProt Q04609 44-750); assay: Octet RED384 BLI, PSMA on sensor, VH purified from periplasmic extracts
T1 construct: Bought protein; also called rhPSMA; Recombinant PMSA
T1 sequence (Q04609 44-750 limits assumed): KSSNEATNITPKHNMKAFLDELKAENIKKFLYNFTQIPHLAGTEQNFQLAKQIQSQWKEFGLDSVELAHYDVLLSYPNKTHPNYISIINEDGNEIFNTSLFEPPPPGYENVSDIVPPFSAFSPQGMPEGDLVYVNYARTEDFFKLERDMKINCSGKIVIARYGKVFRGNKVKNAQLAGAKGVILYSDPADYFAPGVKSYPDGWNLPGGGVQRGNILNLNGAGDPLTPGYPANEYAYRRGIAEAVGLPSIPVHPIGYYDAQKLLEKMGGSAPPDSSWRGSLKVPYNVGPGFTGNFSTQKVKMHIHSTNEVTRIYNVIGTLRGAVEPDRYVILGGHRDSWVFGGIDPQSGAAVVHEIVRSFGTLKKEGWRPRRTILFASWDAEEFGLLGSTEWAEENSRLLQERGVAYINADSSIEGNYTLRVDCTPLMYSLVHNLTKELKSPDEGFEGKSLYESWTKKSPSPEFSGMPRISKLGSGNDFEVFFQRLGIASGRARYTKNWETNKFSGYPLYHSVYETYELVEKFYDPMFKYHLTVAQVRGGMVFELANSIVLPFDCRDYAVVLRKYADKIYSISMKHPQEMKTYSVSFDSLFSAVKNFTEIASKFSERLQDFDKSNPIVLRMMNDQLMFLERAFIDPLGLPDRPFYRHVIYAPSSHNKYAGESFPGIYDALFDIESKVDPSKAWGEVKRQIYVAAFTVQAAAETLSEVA
Kd for assorted binders
Give the value; after it, write the unit.

Reference set, count: 7
[Q] I'd like to know its Kd. The binder in question is single VH domain antibody 10.1 (VHH, Human single VH domain antibody (Humabody); purified via the C-terminal His-tag, residues not tied) VHH: QVQLVESGGGLVQPGGSLRLSCAASGFTFSSYGMHWVRQAPGKGLEWVAFMSYDGSNKYYVDSVKGRFTISRDNSKNTLYLQMNSLRAEDTAVYYCAKGDYDFWSGYPDYDMDVWGQGTTVTVSS
[A] 0.095 µM

[Q] So what's the measured Kd for this one? single VH domain antibody 13.1 (VHH, Human single VH domain antibody (Humabody); purified via the C-terminal His-tag, residues not tied) VHH: EVQLVESGGGSVQPGGSLRLSCAASGFTFSDYWMTWVRQVPGKGLEWVANIKQDGSEKYYVDSVKGRFTISRDNAKNSLYLQMNSLRAEDTAVYYCARDRGGAVALYHNGMDMGGQGTTVTVSS
[A] 0.0042 µM

[Q] Can you look up the measured Kd of single VH domain antibody 14.1 (VHH) VHH: EVQLVESGGEVKKPGASVKVSCKASGYTFTSYDINWVRQATGQGLEWMGWMNPNSGNTGYAQKFQGRVTMTRNTSISTAYMELSSLRSEDTAVYYCARGNGPGITGTTDYWGQGTLVTVSS for me?
[A] 0.017 µM

[Q] What measured Kd goes with single VH domain antibody 4.1 (VHH, Human single VH domain antibody (Humabody); purified via the C-terminal His-tag, residues not tied) VHH: QVQLVESGGGVVQPGRSLRLSCVASGFPFISYGMHWVRQAPGKGREWVAVISYDGSNRYYADSVKGRFTISRDNSKNTLYLQMNSLRPEDTAVYYCAKERIFGVLTPDDFDIWGQGTTVTVSS ?
[A] 0.045 µM

[Q] What value of Kd has been recorded for this entry: single VH domain antibody 12.1 (VHH, Human single VH domain antibody (Humabody); purified via the C-terminal His-tag, residues not tied) VHH: QVQLVESGGGVVQPGRSLRLSCAASGFTFSNFGMHWARQAPGKGLEWVAVISYDGNSKYYADTVKGRFTISRDNSKNTLYLEMNSLRADDTAVYYCAKGLWPPMDVRGQGTTVTVSS
[A] 0.0039 µM

[Q] Would you mind telling me what Kd value was observed for single VH domain antibody 5.1 (VHH, Human single VH domain antibody (Humabody); purified via the C-terminal His-tag, residues not tied) VHH: QVQLVESGGGVVQPGRSLRLSCAASGFTFNNYGMHWVRQAPGKGLEWVAIISYDGNTKYYTDSVKGRFTISRDNSKNTLYLQMNSLRVEDTAVYYCAKGLWPSDVWGQGTTVTVSS ?
[A] 0.03 µM

[Q] Which measured Kd value corresponds to single VH domain antibody 11.1 (VHH, Human single VH domain antibody (Humabody); purified via the C-terminal His-tag, residues not tied) VHH: EVQLVESGGGLVKPGGSLRLSCAASGFNLISYGMYWVRQAPGKGLEWVAVISYDGSNKNYADSVKGRFTISRDNSKNTLFLQMNSLRVEDTAVYYCAKGGNALYSSGWPDDGFDIRGQGTMVTVSS ?
[A] 0.026 µM

Attention now turns to another entry.
[Q] Report Kd for single VH domain antibody 6.1 (VHH, Human single VH domain antibody (Humabody); purified via the C-terminal His-tag, residues not tied) VHH: QVQLQESGPGLVKPSQTLSLTCTVSGGSISNSGYYWSWVRQHPGKDLEWIGFIYYNGSIHYNPSLKSRVIISVDTSKNQFSLKMNSVTAADTAVYYCARDGDDYGDYLRGQGTLVTVSS please.
[A] 0.016 µM
